In this section we review reported pIC50 values for a set of compounds.
Target: Avi-KRAS G12R (1-169) GppNHp/RAF1 RBD-3xFLAG (52-151) (Homo sapiens, UniProt P01116, G12R)
Construct: Avi-KRAS G12R (1-169)
Sequence (P01116 1-169 isoform P01116-2 G12R): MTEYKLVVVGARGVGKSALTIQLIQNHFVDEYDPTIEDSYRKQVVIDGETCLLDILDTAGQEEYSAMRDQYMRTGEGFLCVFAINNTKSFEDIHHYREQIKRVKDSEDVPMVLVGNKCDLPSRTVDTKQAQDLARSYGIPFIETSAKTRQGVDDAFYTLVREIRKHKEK
Test: Raf1-KRAS G12R-GppNHP disruption HTRF assay (Biological Example 1)
Assay type: binding
Conditions: KRAS G12R, GppNHp-loaded; Table 11
pIC50: −log10 of the molar value.
Property Name: pIC50

CC(=O)N1CCN(c2nc(OC[C@@]34CCCN3C[C@H](F)C4)nc3c(F)c(-c4ccc(F)c5sc(N)c(C#N)c45)c(C(F)(F)F)cc23)C[C@H]1CC#N | < 5.00
C[C@@H]1CN(c2nc(OC[C@@]34CCCN3C[C@H](F)C4)nc3c(F)c(-c4ccc(F)c5sc(N)c(C#N)c45)c(C(F)(F)F)cc23)[C@@H](C)CO1 | 5.00 to 6.00
CCN(CCO)c1nc(OCC23CCCN2CCC3)nc2c(F)c(-c3ccc(F)c4sc(N)c(C#N)c34)c(C(F)(F)F)cc12 | 6.00 to 7.00
CC(=O)N1CCN(c2nc(OC[C@@]34CCCN3C[C@H](F)C4)nc3c(F)c(-c4ccc(F)c5sc(N)c(C#N)c45)c(C(F)(F)F)cc23)C[C@@H]1CC#N | 5.00 to 6.00
C[C@H]1COCCN1c1nc(OC[C@@]23CCCN2C[C@H](F)C3)nc2c(F)c(-c3ccc(F)c4sc(N)c(C#N)c34)c(C(F)(F)F)cc12 | 6.00 to 7.00
CN(c1nc(OC[C@@]23CCCN2C[C@H](F)C3)nc2c(F)c(-c3ccc(F)c4sc(N)c(C#N)c34)c(C(F)(F)F)cc12)[C@H]1C[C@@](C)(O)C1 | 6.00 to 7.00
CCN(CCC#N)c1nc(OC[C@@]23CCCN2C[C@H](F)C3)nc2c(F)c(-c3ccc(F)c4sc(N)c(C#N)c34)c(C(F)(F)F)cc12 | 6.00 to 7.00
CC(=O)N1CC[C@H](N(C)c2nc(OC[C@@H]3CCCN3C)nc3c(F)c(-c4ccc(F)c5sc(N)c(C#N)c45)c(C(F)(F)F)cc23)[C@@H]1C | < 5.00

* * *

Target: Avi-KRAS G12D (1-169) GppNHp/RAF1 RBD-3xFLAG (52-151) (Homo sapiens, UniProt P01116, G12D)
Construct: Avi-KRAS G12D (1-169)
Sequence (P01116 1-169 isoform P01116-2 G12D): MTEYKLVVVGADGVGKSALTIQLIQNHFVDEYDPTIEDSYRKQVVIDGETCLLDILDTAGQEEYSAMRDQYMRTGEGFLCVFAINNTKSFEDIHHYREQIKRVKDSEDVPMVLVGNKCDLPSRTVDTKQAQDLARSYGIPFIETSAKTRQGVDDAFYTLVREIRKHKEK
Assay: Raf1-KRAS G12D-GppNHP disruption HTRF assay (Biological Example 1)
Format: binding
Settings: KRAS G12D, GppNHp-loaded; Table 11
In this section we review reported IC50 values for a set of compounds.
Property Name: IC50

Nc1nc2c(-c3c(C(F)(F)F)cc4c(N5CCCC(O)C5)nc(OCC56CCCN5CCC6)nc4c3F)ccc(F)c2s1 (centres unmarked) | 1 to 10 µM
CN(c1nc(OC[C@@]23CCCN2C[C@H](F)C3)nc2c(F)c(-c3ccc(F)c4sc(N)c(C#N)c34)c(C(F)(F)F)cc12)[C@H]1CCC[C@@H]1CO | 0.1 to 1 µM
CN1C[C@H](F)C[C@H]1COc1nc(N(C)[C@H]2C[C@@H](O)C2)c2cc(C(F)(F)F)c(-c3ccc(F)c4sc(N)nc34)c(F)c2n1 (atropisomer, axis not shown) | > 10 µM
CN(c1nc(OC[C@@]23CCCN2C[C@H](F)C3)nc2c(F)c(-c3ccc(F)c4sc(N)c(C#N)c34)c(C(F)(F)F)cc12)[C@@H]1CCOC1 | 0.1 to 1 µM
N#Cc1c(N)sc2c(F)ccc(-c3c(C(F)(F)F)cc4c(N5CCn6nccc6C5)nc(OC[C@@]56CCCN5C[C@H](F)C6)nc4c3F)c12 | 0.1 to 1 µM
CC(=O)N1C[C@@H](F)[C@@H](N(C)c2nc(OC[C@@]34CCCN3C[C@H](F)C4)nc3c(F)c(-c4ccc(F)c5sc(N)c(C#N)c45)c(C(F)(F)F)cc23)C1 | 0.1 to 1 µM
Nc1nc2c(-c3c(C(F)(F)F)cc4c(N[C@H]5CC[C@H](O)C5)nc(OCC56CCCN5CCC6)nc4c3F)ccc(F)c2s1 (atropisomer, axis not shown) | 1 to 10 µM
CC(=O)N1C[C@H](F)[C@@H](N(C)c2nc(OC[C@@]34CCCN3C[C@H](F)C4)nc3c(F)c(-c4ccc(F)c5sc(N)c(C#N)c45)c(C(F)(F)F)cc23)C1 | 0.1 to 1 µM
Nc1nc2c(-c3c(C(F)(F)F)cc4c(N5CC6CCC(C5)C6O)nc(OCC56CCCN5CCC6)nc4c3F)ccc(F)c2s1 (centres unmarked) | 1 to 10 µM
CN(c1nc(OC[C@@]23CCCN2C[C@H](F)C3)nc2c(F)c(-c3ccc(F)c4sc(N)c(C#N)c34)c(C(F)(F)F)cc12)[C@H]1CCS(=O)(=O)C1 [Compound 94] | 0.1 to 1 µM
N#Cc1c(N)sc2c(F)ccc(-c3c(C(F)(F)F)cc4c(N5CCOCC5)nc(OC[C@@]56CCCN5C[C@H](F)C6)nc4c3F)c12 [Compound 90] | 0.1 to 1 µM
CCC(=O)N1C[C@H](C)N(c2nc(OC[C@@]34CCCN3C[C@H](F)C4)nc3c(F)c(-c4ccc(F)c5sc(N)c(C#N)c45)c(C(F)(F)F)cc23)C[C@H]1C (atropisomer, axis not shown) | 1 to 10 µM
CN(c1nc(OC[C@@]23CCCN2C[C@H](F)C3)nc2c(F)c(-c3ccc(F)c4sc(N)c(C#N)c34)c(C(F)(F)F)cc12)C1CC(F)(F)C1 | 0.1 to 1 µM
CN(c1nc(OCC23CCCN2CCC3)nc2c(F)c(-c3ccc(F)c4sc(N)nc34)c(C(F)(F)F)cc12)[C@@H]1CC[C@H](O)C1 (atropisomer, axis not shown) | 1 to 10 µM
CC(=O)N1CCC(N(C)c2nc(OC[C@@]34CCCN3C[C@H](F)C4)nc3c(F)c(-c4ccc(F)c5sc(N)c(C#N)c45)c(C(F)(F)F)cc23)[C@H]1C (some centres unmarked) | 0.1 to 1 µM
CN(CC(F)(F)F)c1nc(OC[C@@]23CCCN2C[C@H](F)C3)nc2c(F)c(-c3ccc(F)c4sc(N)c(C#N)c34)c(C(F)(F)F)cc12 | 0.1 to 1 µM
CN(c1nc(OC[C@@]23CCCN2C[C@H](F)C3)nc2c(F)c(-c3ccc(F)c4sc(N)nc34)c(C(F)(F)F)cc12)[C@H]1C[C@@H](O)C1 (atropisomer, axis not shown) | 0.1 to 1 µM
